Attribution: patent US20040063662A1

Tested on: HCC-2998
Experiment: NCI human tumor cell panel: HCC-2998 (Colon Cancer)
Assay type: cell-based
Details: HCC-2998, read-out: Log10 GI50 (converted)
Catalogue of log10 GI50 values
Property Label: log10 GI50 (log10 of the value in nM)

INSERT INTO assay_data (smiles_text, value) VALUES
  ('OCc1ccc(-c2ccc(-c3ccc(CO)[se]3)s2)s1', 1.80),
  ('OCc1ccc(-c2ccc(-c3ccc(CO)[se]3)s2)[se]1', 2.25),
  ('OCc1ccc(-c2ccc(-c3ccc[se]3)[se]2)[se]1', 3.09),
  ('OCc1ccc(-c2ccc(-c3ccc[se]3)s2)[se]1', 4.63),
  ('OCc1ccc(-c2ccc(-c3ccc(CO)[se]3)[se]2)[se]1', 2.93),
  ('O=Cc1ccc(-c2ccc(-c3ccc(C=O)[se]3)s2)s1', 2.59);

----------
Test system: panel of sixty different human tumor cell lines
Assay: NCI human tumor cell panel: whole panel (mean graph summary)
Conditions: whole panel
Catalogue of Log10 TGI, Delta values
Property Label: Log10 TGI, Delta

INSERT INTO results (smiles_text, tested_target, property_label, value) VALUES
  ('O=Cc1ccc(-c2ccc(-c3ccc(C=O)[se]3)s2)s1', 'panel of sixty different human tumor cell lines', 'Log10 TGI, Delta', 2.75),
  ('OCc1ccc(-c2ccc(-c3ccc(CO)s3)[se]2)s1', 'panel of sixty different human tumor cell lines', 'Log10 TGI, Delta', '−4.41'),
  ('OCc1ccc(-c2ccc(-c3ccc[se]3)s2)[se]1', 'panel of sixty different human tumor cell lines', 'Log10 TGI, Delta', 2.61),
  ('OCc1ccc(-c2ccc(-c3ccc(CO)[se]3)[se]2)[se]1', 'panel of sixty different human tumor cell lines', 'Log10 TGI, Delta', 1.36),
  ('OCc1ccc(-c2ccc(-c3ccc(CO)[se]3)s2)s1', 'panel of sixty different human tumor cell lines', 'Log10 TGI, Delta', 2.99),
  ('OCc1ccc(-c2ccc(-c3ccc(CO)[se]3)s2)[se]1', 'panel of sixty different human tumor cell lines', 'Log10 TGI, Delta', 2.89),
  ('OCc1ccc(-c2ccc(-c3ccc[se]3)[se]2)[se]1', 'panel of sixty different human tumor cell lines', 'Log10 TGI, Delta', 2.14);

----------
Test system: OVCAR-3
Assay: NCI human tumor cell panel: OVCAR-3 (Ovarian Cancer)
Format: cell-based
Conditions: OVCAR-3, read-out: Log10 GI50 (converted)
Rule: GI50 below 60 nM gives label 1, anything at or above gives label 0.

INSERT INTO results (smiles_text, tested_target, label_class) VALUES
  ('OCc1ccc(-c2ccc(-c3ccc(CO)[se]3)s2)s1', 'OVCAR-3', 'label 1'),
  ('O=Cc1ccc(-c2ccc(-c3ccc(C=O)[se]3)s2)s1', 'OVCAR-3', 'label 0'),
  ('OCc1ccc(-c2ccc(-c3ccc[se]3)s2)[se]1', 'OVCAR-3', 'label 1'),
  ('OCc1ccc(-c2ccc(-c3ccc(CO)[se]3)s2)[se]1', 'OVCAR-3', 'label 1'),
  ('OCc1ccc(-c2ccc(-c3ccc(CO)s3)[se]2)s1', 'OVCAR-3', 'label 1'),
  ('OCc1ccc(-c2ccc(-c3ccc(CO)[se]3)[se]2)[se]1', 'OVCAR-3', 'label 0');

----------
Tested on: DU-145
Test: NCI human tumor cell panel: DU-145 (Prostate Cancer)
Format: cell-based
Conditions: DU-145, Prostate Cancer, read-out: Log10 TGI (converted)
Property Label: IC (TGI)

INSERT INTO results (molecule, value) VALUES
  ('O=Cc1ccc(-c2ccc(-c3cccs3)[se]2)s1 [NSC 675346]', '> 100 µM'),
  ('O=Cc1ccc(-c2ccc(-c3ccc(C=O)[se]3)[se]2)[se]1 [NSC 675245]', '> 100 µM'),
  ('O=Cc1ccc(-c2ccc(-c3ccc(C=O)s3)[se]2)s1 [NSC 675345]', '> 100 µM'),
  ('O=Cc1ccc(-c2ccc(-c3ccc(C=O)[se]3)s2)[se]1 [NSC 676630]', '> 100 µM'),
  ('OCc1ccc(-c2ccc(-c3cccs3)[se]2)s1 [NSC 675344]', '> 100 µM'),
  ('O=Cc1ccc(-c2ccc(-c3ccc[se]3)[se]2)[se]1 [NSC 675244]', '25.1 µM');

----------
Tested on: MDA-N
Experiment: NCI human tumor cell panel: MDA-N (Breast Cancer)
Assay type: cell-based
Settings: read-out: Log10 GI50 (converted)
Property Label: GI50 (µM)

INSERT INTO measurements (smiles_text, tested_target, property_label, relation_operator, value) VALUES
  ('O=Cc1ccc(-c2ccc(-c3ccc(C=O)[se]3)s2)s1', 'MDA-N', 'GI50', '=', 20.9),
  ('OCc1ccc(-c2ccc(-c3ccc[se]3)[se]2)[se]1', 'MDA-N', 'GI50', '=', 9.77),
  ('OCc1ccc(-c2ccc(-c3ccc(CO)s3)[se]2)s1', 'MDA-N', 'GI50', '>', 100),
  ('OCc1ccc(-c2ccc(-c3ccc(CO)[se]3)[se]2)[se]1', 'MDA-N', 'GI50', '=', 7.76),
  ('OCc1ccc(-c2ccc(-c3ccc(CO)[se]3)s2)s1', 'MDA-N', 'GI50', '=', 97.7),
  ('OCc1ccc(-c2ccc(-c3ccc[se]3)s2)[se]1', 'MDA-N', 'GI50', '=', 16.6),
  ('OCc1ccc(-c2ccc(-c3ccc(CO)[se]3)s2)[se]1', 'MDA-N', 'GI50', '>', 100);

----------
Test system: NCI-H226
Experiment: NCI human tumor cell panel: NCI-H226 (Non-Small Cell Lung Cancer)
Assay type: cell-based
Settings: NCI-H226, read-out: Log10 TGI (converted)
Catalogue of IC (TGI) values
Property Label: IC (TGI) (nM)

INSERT INTO assay_data (smiles_text, value) VALUES
  ('OCc1ccc(-c2ccc(-c3ccc(CO)s3)[se]2)s1', 72.4),
  ('OCc1ccc(-c2ccc(-c3ccc(CO)[se]3)s2)[se]1', 53.7),
  ('OCc1ccc(-c2ccc(-c3ccc(CO)[se]3)[se]2)[se]1', 3890),
  ('OCc1ccc(-c2ccc(-c3ccc[se]3)s2)[se]1', 182);

----------
Test system: HCT-116
Experiment: NCI human tumor cell panel: HCT-116 (Colon Cancer)
Assay type: cell-based
Details: HCT-116, Colon Cancer, read-out: Log10 TGI (converted)
Catalogue of IC (TGI) values
Property Label: IC (TGI)

INSERT INTO assay_data (smiles_text, property_label, value) VALUES
  ('O=Cc1ccc(-c2ccc(-c3ccc(C=O)s3)[se]2)s1', 'IC (TGI)', '> 100 µM'),
  ('O=Cc1ccc(-c2ccc(-c3ccc(C=O)[se]3)s2)[se]1', 'IC (TGI)', '> 100 µM'),
  ('O=Cc1ccc(-c2ccc(-c3cccs3)[se]2)s1', 'IC (TGI)', '> 100 µM'),
  ('OCc1ccc(-c2ccc(-c3cccs3)[se]2)s1', 'IC (TGI)', '0.0417 µM'),
  ('O=Cc1ccc(-c2ccc(-c3ccc[se]3)[se]2)[se]1', 'IC (TGI)', '13.8 µM'),
  ('O=Cc1ccc(-c2ccc(-c3ccc(C=O)[se]3)[se]2)[se]1', 'IC (TGI)', '> 100 µM');

----------
Catalogue of IC (TGI) values
Test system: HOP-62
Assay: NCI human tumor cell panel: HOP-62 (Non-Small Cell Lung Cancer)
Type: cell-based
Details: HOP-62, read-out: Log10 TGI (converted)
Property Label: IC (TGI)

INSERT INTO results (smiles_text, property_label, value) VALUES
  ('OCc1ccc(-c2ccc(-c3ccc(CO)s3)[se]2)s1', 'IC (TGI)', '> 100 µM'),
  ('O=Cc1ccc(-c2ccc(-c3ccc(C=O)[se]3)s2)s1', 'IC (TGI)', '15.8 µM'),
  ('OCc1ccc(-c2ccc(-c3ccc(CO)[se]3)[se]2)[se]1', 'IC (TGI)', '21.4 µM'),
  ('OCc1ccc(-c2ccc(-c3ccc(CO)[se]3)s2)[se]1', 'IC (TGI)', '> 100 µM'),
  ('OCc1ccc(-c2ccc(-c3ccc[se]3)[se]2)[se]1', 'IC (TGI)', '20.4 µM'),
  ('OCc1ccc(-c2ccc(-c3ccc(CO)[se]3)s2)s1', 'IC (TGI)', '28.2 µM'),
  ('OCc1ccc(-c2ccc(-c3ccc[se]3)s2)[se]1', 'IC (TGI)', '> 100 µM');

----------
System: NCI-H522
Test: NCI human tumor cell panel: NCI-H522 (Non-Small Cell Lung Cancer)
Details: NCI-H522, read-out: Log10 TGI
Property Label: IC (TGI)

INSERT INTO measurements (smiles_text, value) VALUES
  ('OCc1ccc(-c2ccc(-c3ccc(CO)[se]3)[se]2)[se]1', '3.39 µM'),
  ('O=Cc1ccc(-c2ccc(-c3ccc(C=O)[se]3)s2)[se]1', '53.7 µM'),
  ('O=Cc1ccc(-c2ccc(-c3ccc[se]3)[se]2)[se]1', '17.4 µM'),
  ('OCc1ccc(-c2ccc(-c3cccs3)[se]2)s1', '> 100 µM'),
  ('OCc1ccc(-c2ccc(-c3ccc(CO)s3)[se]2)s1', '> 100 µM');
